Species on record: Rattus norvegicus
Test: DrugMatrix - Regimen: Daily Repeat
Type: toxicity, organism-based, Sprague-Dawley
Parameters: regimen Daily Repeat, gender Male, age 6-8 weeks
Conditions: in vivo, po, 0 mg/kg, 72 h, tissue Plasma, route oral GAVAGE, dose level Control, time 3 day, vehicle .5 % CMC
Measurement kind: LIPASE (u/L)
All answers are understood in u/L, so give the number only.

// below: answered molecules
COC1=C(OC)C(=O)C(CCCCCCCCCCO)=C(C)C1=O | 10
COc1cc2nc(N3CCN(C(=O)c4ccco4)CC3)nc(N)c2cc1OC | 10.33

We next turn to a different molecule, shown below.
stdin: Can you look up the measured LIPASE of O=C1C(CC[S+]([O-])c2ccccc2)C(=O)N(c2ccccc2)N1c1ccccc1 (stereo not drawn) for me?
stdout: 10.33
